Consider the following binders; for each one, report its Kd.
# study-system: T1, prefusion-stabilized RSV F ectodomain (DS-Cav1), subtype B (respiratory syncytial virus subtype B)
# T1 construct: extracellular domain; also called Prefusion subtype B
# assay-procedure: BLI, IgG on sensor
Numbers only, in nM.

Please give Kd for each item listed below.
1. ADI-15620 (antibody, V domains shown, IgG) VH: QVQLVQSGAEVKKPGASVKVSCKASGYTFTSYDINWVRQATGHGLEWMGWMSPNSGYTGYAQKFQGRVTMSRNTSTGTAYMELSSLRSEDTAVYYCAREARDLRVGATNFDYWGQGTLVTVSS VL: QPVLTQPPSVSVSPGQTASITCSGDKLGDKYISWYQQRPGQSPVMVIYQDSKGPSGIPERFSGSNSGNTATLTISGTQAMDEADYYCQAWDSSIDVVFGGGTKLTVL
2. ADI-15593 (antibody, V domains shown, IgG; also called Antibody Number 160) VH: QVQLVQSGGGLVRPGGSLRLSCAASGFMFSTYSMNWLRTVPGKGLEWVSSISGSSSHIYYADSVKGRFTISRDNTKNSLYLQMNSLRPEDTALYYCARYFGDYSGLGNYYYYGMDVWGQGTTVTVSS VL: DIVMTQSPVSLPVTPGEPASISCRSSQSLLHSNGNNYLDWYLQRPGQSPQLLIYLGSNRASGVPDRFSGSGSGTDFTLRISRVEAEDVGVYYCMQALQTPRFGGGTKVEIK

Resp:
[1.4, 3.95]
